Target: GPR139 (Homo sapiens)
Sequence (Q6DWJ6 1-353): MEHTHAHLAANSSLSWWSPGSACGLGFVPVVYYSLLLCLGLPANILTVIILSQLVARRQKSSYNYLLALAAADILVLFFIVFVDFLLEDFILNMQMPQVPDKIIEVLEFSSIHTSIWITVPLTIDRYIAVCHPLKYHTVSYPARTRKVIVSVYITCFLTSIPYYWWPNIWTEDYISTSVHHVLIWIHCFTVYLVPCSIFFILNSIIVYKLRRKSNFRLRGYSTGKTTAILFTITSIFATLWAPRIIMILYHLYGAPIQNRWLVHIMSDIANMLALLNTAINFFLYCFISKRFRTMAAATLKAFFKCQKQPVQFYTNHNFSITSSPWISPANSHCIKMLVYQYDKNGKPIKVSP
Experiment: GPR139 Agonist titration / agonist counterscreen assay (calcium detection, HEK-GPR139 cells)
Format: cell-based
Parameters: expressed in transfected cells; host or cells: HEK Aequorin cells, Maxcyte transient transfection
Conditions: GPR139 Agonist Activity; values printed in E-notation without unit; read-out: EC50
parameter_measured: EC50 (nM)

See these solved cases before continuing.
1) Cc1cc(C(=O)CCC(=O)NNC(=O)CSc2nc3ccccc3s2)c(C)s1 13.6
2) O=C(Cn1ccc([N+](=O)[O-])n1)NCCc1ccc(Cl)cc1 5
3) Cc1cccc(Cc2cnc(NC(=O)CC(C)C)s2)c1 39.6

a: CC(C)c1ccc(NC(=O)Cn2ncc3c2-c2ccccc2OC3)cc1
b: CCCCNC(=O)NNC(=O)CSc1cc(C)c(Br)cc1C
c: COc1ccc(CCNC(=O)COc2ccc(Cl)cc2Cl)cc1
Ask: Parameters: sort_field (EC50), sort_dir (desc). Submit the labels in the order that the ranking request calls for.
Result: a, b, c
(a: 181 nM, b: 16.3 nM, c: 6.2 nM)

I: COc1ccc(C(=O)NNC(=O)COc2ccc(Cl)cc2Cl)cc1OC
II: COc1ccc(NC(=O)Cn2ncc3c2-c2ccccc2OC3)cc1Cl
Ask: Looking at recorded values for EC50, does I or II come in lower? Lab log: write the label of the selected item as the result.
Result: II
(II: 82.9 nM, I: 231 nM)

###

Target: GPR139 (Homo sapiens, UniProt Q6DWJ6)
Test: GPR139 Agonist titration / agonist counterscreen assay (calcium detection, HEK-GPR139 cells)
Assay type: cell-based
Design: expressed in transfected cells; host or cells: HEK Aequorin cells, Maxcyte transient transfection
Conditions: agonist counterscreen of the antagonists
parameter_measured: GRP139 Agonist activity Averaged Max % Response (±St. Dev.) (%)

1: Cc1cc(C)c(NC(=O)c2ccc(Br)cc2)c(C)c1NC(=O)c1ccc(Br)cc1
2: O=C(NCCCN1CCCC1=O)c1ccc(NCc2ccc(F)cc2)c(S(=O)(=O)Nc2cccc(C(F)(F)F)c2)c1
Ask: Kindly identify which of 1 and 2 has the larger recorded GRP139 Agonist activity Averaged Max % Response (±St. Dev.) value. Write down the label of the entry you select.
Result: 1

###

Target: GPR139 (Homo sapiens)
Experiment: GPR139 Agonist titration / agonist counterscreen assay (calcium detection, HEK-GPR139 cells)
Format: cell-based
Parameters: expressed in transfected cells; host or cells: HEK Aequorin cells, Maxcyte transient transfection
Details: GPR139 Agonist Activity
parameter_measured: Lipophilic Efficiency (logP)

Completed entries (count: 3):
molecule	Lipophilic Efficiency (logP)
Cc1cccc(C(=O)NNC(=O)CCc2ccccc2)c1	3.32
CCOC(=O)c1cccc(NC(=O)Cc2cccc3ccccc23)c1	1.49
COc1ccccc1NC(=O)C(=O)NNC(=O)COc1ccc(Br)cc1C	3.22

a: Cc1ccc(Nc2cn[nH]c(=S)n2)c(C)c1
b: Cc1ccccc1CN1CCC(O)(c2ccc(Cl)c(C(F)(F)F)c2)CC1
Ask: For the pair a and b , which member has the lower Lipophilic Efficiency (logP) number? Please respond with the label that marks your chosen entry.
Result: b

A: COc1ccc2cc(C3(C)CC(=O)N(CC(=O)N(CC(C)C)CC(C)C)C3=O)ccc2c1 (centres unmarked)
B: Cc1cc(-c2nnc(NC(=O)CCc3ccccc3)o2)n(C)n1
Ask: Given the two records A and B , choose the one whose Lipophilic Efficiency (logP) value is lower. Write down the label attached to your selection.
Result: A

###

Target: GPR139 (Homo sapiens, UniProt Q6DWJ6)
Sequence (Q6DWJ6 1-353): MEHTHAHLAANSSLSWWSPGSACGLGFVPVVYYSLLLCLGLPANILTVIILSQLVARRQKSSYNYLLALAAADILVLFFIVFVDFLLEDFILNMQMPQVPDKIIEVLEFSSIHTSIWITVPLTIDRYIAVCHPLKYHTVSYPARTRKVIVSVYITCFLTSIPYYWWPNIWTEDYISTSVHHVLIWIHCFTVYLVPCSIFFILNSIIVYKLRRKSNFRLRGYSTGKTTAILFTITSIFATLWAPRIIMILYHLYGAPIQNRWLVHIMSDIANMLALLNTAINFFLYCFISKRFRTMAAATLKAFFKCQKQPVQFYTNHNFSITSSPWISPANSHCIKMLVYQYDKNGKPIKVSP
Assay: GPR139 Agonist titration / agonist counterscreen assay (calcium detection, HEK-GPR139 cells)
Type: cell-based
Design: expressed in transfected cells; host or cells: HEK Aequorin cells, Maxcyte transient transfection
Conditions: GPR139 Agonist Activity; values printed in E-notation without unit; read-out: EC50
pEC50: −log10 of the molar value.
parameter_measured: pEC50

compound	pEC50
COc1ccccc1-c1nnc(NC(=O)Cc2ccc(C)cc2C)o1 [SR-01000915644]	7.29
CCn1c(=O)n(CC(=O)NCC2COc3ccccc3O2)c(=O)c2ccccc21 (stereo not drawn) [SR-01000589950]	7.44

a: COc1ccc(CCNC(=O)c2cncc(-c3csc4ccccc34)c2)cc1 [SR-01000654639]
b: CCc1cc(C2=C/C(=C/c3c(OC)ccc4ccccc34)C(=O)O2)cc(OC)c1OC [SR-01000551463]
Ask: Of a and b , which carries the smaller reported pEC50 figure? Your choice should be expressed through its label.
Result: a

###

Target: GPR139 (Homo sapiens)
Sequence (Q6DWJ6 1-353): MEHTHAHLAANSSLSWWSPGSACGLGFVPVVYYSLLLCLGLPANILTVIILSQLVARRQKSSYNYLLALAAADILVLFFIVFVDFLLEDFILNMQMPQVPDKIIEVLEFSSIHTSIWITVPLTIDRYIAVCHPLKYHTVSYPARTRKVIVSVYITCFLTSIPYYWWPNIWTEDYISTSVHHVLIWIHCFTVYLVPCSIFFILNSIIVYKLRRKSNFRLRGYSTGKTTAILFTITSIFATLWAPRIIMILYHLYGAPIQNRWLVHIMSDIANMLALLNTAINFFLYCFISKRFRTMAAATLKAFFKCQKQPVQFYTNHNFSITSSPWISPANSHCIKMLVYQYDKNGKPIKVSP
Test: GPR139 Agonist titration / agonist counterscreen assay (calcium detection, HEK-GPR139 cells)
Assay type: cell-based
Design: expressed in transfected cells; host or cells: HEK Aequorin cells, Maxcyte transient transfection
Details: GPR139 Agonist Activity; based on logD
Experimental: GPR activity was assessed using a calcium detection assay. […] Negative control samples were treated with DMSO. […] Intracellular calcium was measured using Calcium 5.
parameter_measured: Lipophilic Efficiency (logD)

Reference set, count: 10
compound	Lipophilic Efficiency (logD)
O=C(COc1ccccc1Cl)NNC(=O)CSc1ccc2ccccc2c1	4.08
O=C(Cn1ncc2c1-c1ccccc1OC2)Nc1ccccn1	4.72
Cc1ccc(C)c(C(=O)CCC(=O)NNC(=O)CSc2nc3ccccc3o2)c1	4.38
COc1ccccc1CC1(C)NC(=O)N(CC(=O)NC(C)c2cccc(Cl)c2)C1=O (stereo not drawn)	4.85
COc1ccc(CCC(=O)Nc2ccc(-c3cn[nH]c3)c(OC)c2)cc1	4.08
Cc1ccc(NC(=O)NNC(=O)COc2ccc(Cl)cc2)c(C)c1	3.88
CCCc1ccccc1C1=CCC(NC(=O)Cn2ncc3c2-c2ccccc2CC3)=C1	3.95
C=C(C)CN(CC)C(=O)CN1C(=O)NC(C)(c2ccc3ccccc3c2)C1=O (stereo not drawn)	5.59
Cc1cc(C(=O)CCC(=O)NNC(=O)c2ccc(COc3ccccc3)cc2)c(C)o1	3.74
O=C(NCCn1ccc2ccccc21)c1cccc(Br)c1	2.76

1: Cc1cccc(Cc2cnc(NC(=O)CC(C)C)s2)c1
2: CCn1c(=O)c([N+](=O)[O-])c(NCCc2ccc(OC)cc2)c2ccccc21
Ask: Returns the identifier with the smallest measured Lipophilic Efficiency (logD) among 1 and 2 . Which one? Tell me its label.
Result: 1

I: Cc1ccccc1C(=O)NNC(=O)C(C)Oc1ccc(Cl)cc1Cl (stereo not drawn)
II: CCOc1ccc(C(=O)NCCn2ccc3ccccc32)cc1OCC
Ask: Field: lower recorded Lipophilic Efficiency (logD) (choose I or II ) // caller expects the label of the chosen entry
Result: I
(I: 2.98, II: 5.58)

Data credit: patent US20250099420A1
